B1: KIAA0774 (parent)
chain: FEDEVKRLGWQQQAELQELEERLQ

- Variants of: B1
- assay-notes: protein stability index of a GFP-peptide fusion (GPS, HEK-293T) (PSI 1-6); higher = more stable;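 note: lentivirally expressed fusions sorted by FACS into six bins by GFP to DsRed ratio, PSI derived from sequencing read proportions per bin multiplied by bin number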
- test-parameters: c terminus: a fixed tail appended
Quick rule for you: protein stability index at 4 or higher means YES, lower means NO.

FEDEVKRLLWQQQAELQELEERLQ [G9L] ... NO
FEDEVKRLGWQQQAELQVLEERLQ [E18V] ... NO
FEDEVKRLGWQPQAELQELEERLQ [Q12P] ... YES
FEDEMKRLGWQQQAELQELEERLQ [V5M] ... YES
FEDEVKRLGWQQNAELQELEERLQ [Q13N] ... YES
FEDEVKRLGWQQQAELQELEERPQ [L23P] ... YES

# evaluate next
Prompt: Does protein stability index meet or surpass 4 for FEDEVKRLKWQQQAELQELEERLQ [G9K] ?
Response: NO
